# METHOD: AUC (infinity) in rat at 1 mg/kg, iv
# Type: ADME, organism-based
# CONDITION NOTES: in vivo
PROPERTY NAME: AUC(0-inf) (µM·h)
Give bare numbers, in µM·h.

Please indicate AUC(0-inf) recorded for C=C(C)[C@@H]1CC[C@]2(NCCN3CCS(=O)(=O)CC3)CC[C@]3(C)[C@H](CC[C@@H]4[C@@]5(C)CC=C(C6=CC[C@](COc7ncccc7C#N)(C(=O)O)CC6)C(C)(C)[C@@H]5CC[C@]43C)[C@@H]12 16.1

###

# METHOD: AUC (infinity) in rat at 5 mg/kg, po
# Assay type: ADME, organism-based
# CONDITION NOTES: in vivo
PROPERTY NAME: AUC(0-inf) (µM·h)
Answers are plain numbers, in µM·h.

Given C=C(C)[C@@H]1CC[C@]2(NCCN3CCS(=O)(=O)CC3)CC[C@]3(C)[C@H](CC[C@@H]4[C@@]5(C)CC=C(C6=CC[C@](COc7ncccc7C#N)(C(=O)O)CC6)C(C)(C)[C@@H]5CC[C@]43C)[C@@H]12 , respond with its AUC(0-inf). 36.3

###

# METHOD: AUC (infinity) in mouse at 1 mg/kg, iv
# Assay type: ADME, organism-based
# CONDITION NOTES: in vivo
PROPERTY NAME: AUC(0-inf)
Be sure to follow the number with its unit.

Provide one value: measured AUC(0-inf) of C=C(C)[C@@H]1CC[C@]2(NCCN3CCS(=O)(=O)CC3)CC[C@]3(C)[C@H](CC[C@@H]4[C@@]5(C)CC=C(C6=CC[C@](COc7ncccc7C#N)(C(=O)O)CC6)C(C)(C)[C@@H]5CC[C@]43C)[C@@H]12 32.2 µM·h

###

# METHOD: Metabolic stability in mouse liver microsomes assessed as half life
# Assay type: ADME, Microsome
PROPERTY NAME: half-life

State its half-life for this compound: C=C(C)[C@@H]1CC[C@]2(NCCN3CCS(=O)(=O)CC3)CC[C@]3(C)[C@H](CC[C@@H]4[C@@]5(C)CC=C(C6=CC[C@](COc7ncccc7C#N)(C(=O)O)CC6)C(C)(C)[C@@H]5CC[C@]43C)[C@@H]12 > 2 h

###

For each record, write down the corresponding EC50.
# Test system: Human immunodeficiency virus 1
# METHOD: In vitro antiviral activity against fully replicating wild type HIV1 NL4-3
# Assay type: functional, organism-based
# CONDITION NOTES: Human immunodeficiency virus 1, NL4-3
Number first, unit second: that is the form wanted.

Completed entries (count: 2):
COMPOUND: C=C(C)[C@@H]1CC[C@]2(NCCN3CCS(=O)(=O)CC3)CC[C@]3(C)[C@H](CC[C@@H]4[C@@]5(C)CC=C(C6=CC[C@@](COc7ncccc7C#N)(C(=O)O)CC6)C(C)(C)[C@@H]5CC[C@]43C)[C@@H]12 [ZEGRUVIRIMAT]
PROPERTY NAME: EC50
RESULT: 2.5 nM

COMPOUND: C=C(C)[C@@H]1CC[C@]2(NCCN3CCS(=O)(=O)CC3)CC[C@]3(C)[C@H](CC[C@@H]4[C@@]5(C)CC=C(C6=CCC(COc7ccccn7)(C(=O)O)CC6)C(C)(C)[C@@H]5CC[C@]43C)[C@@H]12 (mixture of isomers)
PROPERTY NAME: EC50
RESULT: 2.6 nM

Please give measured EC50 of the following entry: C=C(C)[C@@H]1CC[C@]2(NCCN3CCS(=O)(=O)CC3)CC[C@]3(C)[C@H](CC[C@@H]4[C@@]5(C)CC=C(C6=CCC(COc7cccnc7)(C(=O)O)CC6)C(C)(C)[C@@H]5CC[C@]43C)[C@@H]12 (mixture of isomers) 1.9 nM
